Ref: ChEMBL document CHEMBL5223122

# Test Details: Microsomal stability in human liver microsomes assessed as intrinsic clearance measured per mg of protein
# Type: ADME, Microsome
# Assay Setup: read-out: CLH
Readout Type: microsomal CLint

[ask] Give the value of microsomal CLint reported for the following: `COCCCOc1cc2c(cc1OC)-c1cc(=O)c(C(=O)O)cn1[C@H](C(C)(C)C)CO2`
[reply] < 7.5 µL/min/mg

---

# Test Details: Clearance in C57BL/6 mouse at 1 mg/kg, iv
# Type: ADME, organism-based
# Assay Setup: in vivo
Let's look at some compounds and their measured clearance.
The answer is to be given in mL/min/kg; state only the numeric part.

Answered examples (3):
smi=COCCCOc1cc2c(cc1Cl)-c1cc(=O)c(C(=O)O)cn1[C@H](C(C)C)CO2 observed_measurement=32
smi=COCCCOc1cc2c(cc1C(C)=O)-c1cc(=O)c(C(=O)O)cn1[C@H](C(C)(C)C)CO2 observed_measurement=81
smi=COCCCOc1cc2c(cc1Cl)-c1cc(=O)c(C(=O)O)cn1[C@H](C(C)(C)C)CO2 observed_measurement=58.5

Turning now to a further compound:
[ask] Identify measured clearance corresponding to `COCCCOc1cc2c(cc1OC)-c1cc(=O)c(C(=O)O)cn1[C@H](C(C)(C)C)CO2`
[reply] 75

---

Items are presented alongside their recorded bioavailability.
# Test Details: Oral bioavailability in C57BL/6 mouse at 2 mg/kg
# Assay type: ADME, organism-based
# Assay Setup: in vivo
Your answer is read as %, so omit the unit and give the number.

Answered examples (3):
smi=COCCCOc1cc2c(cc1OC)-c1cc(=O)c(C(=O)O)cn1[C@H](C(C)(C)C)CO2 readout_type=bioavailability observed_measurement=91.6
smi=COCCCOc1cc2c(cc1Cl)-c1cc(=O)c(C(=O)O)cn1[C@H](C(C)(C)C)CO2 readout_type=bioavailability observed_measurement=18.3
smi=COCCCOc1cc2c(cc1Cl)-c1cc(=O)c(C(=O)O)cn1[C@H](C(C)C)CO2 readout_type=bioavailability observed_measurement=56.3

Now look at this one.
[ask] Give recorded bioavailability. `COCCCOc1cc2c(cc1C(C)=O)-c1cc(=O)c(C(=O)O)cn1[C@H](C(C)(C)C)CO2`
[reply] 55.3

---

# Test Details: Protein binding in rat plasma assessed as unbound fraction
# Format: ADME, cell-free
Readout Type: fraction unbound
Give only the figure.

[ask] Quickly give me recorded fraction unbound for `COCCCOc1cc2c(cc1OC)-c1cc(=O)c(C(=O)O)cn1[C@H](C(C)(C)C)CO2`
[reply] 0.414

---

# Test Details: Microsomal stability in dog liver microsomes assessed as intrinsic clearance measured per mg of protein
# Format: ADME, Canis lupus familiaris, Microsome
# Assay Setup: read-out: CLH
Readout Type: microsomal CLint

[ask] Could you please provide reported microsomal CLint for `COCCCOc1cc2c(cc1OC)-c1cc(=O)c(C(=O)O)cn1[C@H](C(C)(C)C)CO2` ? Thanks!
[reply] < 7.5 µL/min/mg

---

# Test Details: Protein binding in human plasma assessed as unbound fraction
# Format: ADME, cell-free
Readout Type: fraction unbound
Please state the value as a number alone, without comment.

[ask] Give the reported value of fraction unbound for this record: `COCCCOc1cc2c(cc1OC)-c1cc(=O)c(C(=O)O)cn1[C@H](C(C)(C)C)CO2`
[reply] 0.44
